# System: Salmonella typhimurium 420
# protocol.text: MIC, liquid medium dilution
# Type: cell-based
# assay.conditions: Salmonella enterica, 48 h
quantity.measured: MIC (µg/mL)
Form entry: value (µg/mL) — number only.

MIC reported for this molecule CO/N=C(\C(=O)NC1C(=O)N2C(C(=O)O)=C(C)CSC12)c1csc(N)n1 (stereo not drawn) [Example 10] : 0.6

MIC reported for this molecule CO/N=C(\C(=O)NC1C(=O)N2C(C(=O)O)=C(CSc3nnnn3C)CS[C@H]12)c1csc(N)n1 (stereo partly drawn) [Example 4] : 0.2

MIC reported for this molecule CO/N=C(/C(=O)NC1C(=O)N2C(C(=O)O)=C(CSC(C)=O)CSC12)c1csc(N)n1 (stereo not drawn) [Example 17] : 40

MIC reported for this molecule CO/N=C(\C(=O)NC1C(=O)N2C(C(=O)O)=C(CSc3nnc(C)s3)CS[C@H]12)c1csc(N)n1 (stereo partly drawn) [Example 2] : 0.6

MIC reported for this molecule CO/N=C(\C(=O)NC1C(=O)N2C(C(=O)O)=C(CSC(C)=O)CSC12)c1csc(N)n1 (stereo not drawn) [Example 6] : 0.4

====

# Test system: Streptococcus faecalis 5 432
# protocol.text: MIC, liquid medium dilution
# Assay type: cell-based
# assay.conditions: Enterococcus faecalis, 5432, 48 h
Provide the recorded MIC for the entries that follow.
Form entry: value (µg/mL) — number only.

Tested on Streptococcus faecalis 5 432: CO/N=C(\C(=O)NC1C(=O)N2C(C(=O)O)=C(CSc3nnnn3C)CS[C@H]12)c1csc(N)n1 (some centres unmarked) [Example 4] . Observed MIC: 2

Tested on Streptococcus faecalis 5 432: CO/N=C(\C(=O)NC1C(=O)N2C(C(=O)O)=C(CSC(C)=O)CSC12)c1csc(N)n1 (centres unmarked) [Example 6] . Observed MIC: 5

====

# System: Staphylococcus aureus ATCC 6 538 Pen-Sensitive
# protocol.text: MIC, liquid medium dilution
# Assay type: cell-based
# assay.conditions: ATCC6, 48 h
Provide the recorded MIC for the entries that follow.
Form entry: value (µg/mL) — number only.

MIC reported for this molecule CO/N=C(\C(=O)NC1C(=O)N2C(C(=O)O)=C(CSC(C)=O)CSC12)c1csc(N)n1 (centres unmarked) : 2

MIC reported for this molecule CO/N=C(\C(=O)NC1C(=O)N2C(C(=O)O)=C(CSc3nnc(C)s3)CS[C@H]12)c1csc(N)n1 (some centres unmarked) : 1

MIC reported for this molecule CO/N=C(\C(=O)NC1C(=O)N2C(C(=O)O)=C(C)CSC12)c1csc(N)n1 (centres unmarked) : 40

MIC reported for this molecule CO/N=C(/C(=O)NC1C(=O)N2C(C(=O)O)=C(CSC(C)=O)CSC12)c1csc(N)n1 (centres unmarked) : 20

====

# System: Klebsiella pneumoniae 2 536 Resistant Gentamicine
# protocol.text: MIC, liquid medium dilution
# Assay type: cell-based
# assay.conditions: 24 h
quantity.measured: MIC (µg/mL)
Form entry: value (µg/mL) — number only.

Tested on Klebsiella pneumoniae 2 536 Resistant Gentamicine: CO/N=C(\C(=O)NC1C(=O)N2C(C(=O)O)=C(CSC(C)=O)CSC12)c1csc(N)n1 (stereo not shown) [Example 6] . Observed MIC: 1

Tested on Klebsiella pneumoniae 2 536 Resistant Gentamicine: CO/N=C(\C(=O)NC1C(=O)N2C(C(=O)O)=C(CSc3nnnn3C)CS[C@H]12)c1csc(N)n1 (stereo partly shown) [Example 4] . Observed MIC: 0.4
